# Test system: Saccharomyces cerevisiae
# experiment_summary: protein stability index of tFT-peptide fusion (C-terminal peptide) (PSI (0-1 scale)); higher = more stable (slower turnover);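 note: PSI is a weighted mean of sequencing reads over stability bins, variants kept only with over 10 reads, mCherry proximal and sfGFP distal, peptide attached via GGGS linker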
# test_settings: genetic background: wild type; temperature: 30 C
Item-by-item account of protein stability index
measurement_kind: protein stability index

{"residues": "TRALPIVLAVGP", "measurement_kind": "protein stability index", "result": 0.59}
{"residues": "PLYLSFSFCPSF", "measurement_kind": "protein stability index", "result": 0.611}
{"residues": "LLLGSFFNKPTT", "measurement_kind": "protein stability index", "result": 0.678}
{"residues": "APRPLPPPPSPC", "measurement_kind": "protein stability index", "result": 0.726}
{"residues": "SISSFLPRRLPF", "measurement_kind": "protein stability index", "result": 0.662}
{"residues": "FLVPTYISPFSF", "measurement_kind": "protein stability index", "result": 0.65}
{"residues": "DKSGVYYMYSFK", "measurement_kind": "protein stability index", "result": 0.733}
{"residues": "QLGGLHIPHPLR", "measurement_kind": "protein stability index", "result": 0.899}
{"residues": "KTIQDNNYDGIW", "measurement_kind": "protein stability index", "result": 0.766}
{"residues": "MTIMPSPLGVVH", "measurement_kind": "protein stability index", "result": 0.514}
{"residues": "TQLNTLSTINRT", "measurement_kind": "protein stability index", "result": 0.71}
{"residues": "DIEFGLSTVVCH", "measurement_kind": "protein stability index", "result": 0.51}
{"residues": "PISPLPPPRFLP", "measurement_kind": "protein stability index", "result": 0.677}
{"residues": "LPPSLPTHLSHP", "measurement_kind": "protein stability index", "result": 0.763}
{"residues": "GCSLTFAGLFCI", "measurement_kind": "protein stability index", "result": 0.629}
{"residues": "RGPRGGFHFFRA", "measurement_kind": "protein stability index", "result": 0.666}
{"residues": "LLPPPPPPTLYP", "measurement_kind": "protein stability index", "result": 0.699}
{"residues": "RRGKIETKESKK", "measurement_kind": "protein stability index", "result": 0.712}
{"residues": "PLPLPVSPRPPP", "measurement_kind": "protein stability index", "result": 0.681}

---

# Tested on: Saccharomyces cerevisiae
# experiment_summary: protein stability index of tFT-peptide fusion (C-terminal peptide) (PSI (0-1 scale)); higher = more stable (slower turnover)
# test_settings: genetic background: wild type; temperature: 30 C
Please use condition met whenever protein stability index is not below 0.7, and condition not met whenever it is.

{"residues": "LASSGQSWLVVF", "target_or_test_system": "Saccharomyces cerevisiae", "assigned_label": "condition not met"}
{"residues": "LRLATTLFPLSF", "target_or_test_system": "Saccharomyces cerevisiae", "assigned_label": "condition met"}
{"residues": "LTLPPACFPRLR", "target_or_test_system": "Saccharomyces cerevisiae", "assigned_label": "condition met"}
{"residues": "AGGSVFSVLVDE", "target_or_test_system": "Saccharomyces cerevisiae", "assigned_label": "condition not met"}
{"residues": "IGYHGRSLGWKR", "target_or_test_system": "Saccharomyces cerevisiae", "assigned_label": "condition not met"}
{"residues": "VSNKWATANKYG", "target_or_test_system": "Saccharomyces cerevisiae", "assigned_label": "condition not met"}
{"residues": "DCCAHLRARRLT", "target_or_test_system": "Saccharomyces cerevisiae", "assigned_label": "condition not met"}
{"residues": "FLCLLSLFFLDF", "target_or_test_system": "Saccharomyces cerevisiae", "assigned_label": "condition not met"}
{"residues": "PPSLPPLFLRAP", "target_or_test_system": "Saccharomyces cerevisiae", "assigned_label": "condition not met"}
{"residues": "RVGVRGVVVSMG", "target_or_test_system": "Saccharomyces cerevisiae", "assigned_label": "condition not met"}
{"residues": "SAPPSPPLPPPC", "target_or_test_system": "Saccharomyces cerevisiae", "assigned_label": "condition not met"}
{"residues": "PAPRWFSHPSYP", "target_or_test_system": "Saccharomyces cerevisiae", "assigned_label": "condition not met"}

---

Item-by-item account of protein stability index
# System: Saccharomyces cerevisiae
# experiment_summary: protein stability index of tFT-peptide fusion (C-terminal peptide) (PSI (0-1 scale)); higher = more stable (slower turnover)
# test_settings: genetic background: wild type; temperature: 30 C
measurement_kind: protein stability index

{"residues": "VFWISRLYLASY", "measurement_kind": "protein stability index", "number": 0.362}
{"residues": "FFVEKRVFFGII", "measurement_kind": "protein stability index", "number": 0.242}
{"residues": "VYKSTHKIYILT", "measurement_kind": "protein stability index", "number": 0.364}
{"residues": "RKGQNKKRNKIY", "measurement_kind": "protein stability index", "number": 0.295}
{"residues": "VCWVYESWKCLA", "measurement_kind": "protein stability index", "number": 0.103}
{"residues": "VSPPPLSPPLSR", "measurement_kind": "protein stability index", "number": 0.673}
{"residues": "FVWWFFFLSVVS", "measurement_kind": "protein stability index", "number": 0.216}
{"residues": "GCWRVELLVFMC", "measurement_kind": "protein stability index", "number": 0.0595}
{"residues": "GCCFVCSVFWWG", "measurement_kind": "protein stability index", "number": 0.353}
{"residues": "NNGLLLDILIKA", "measurement_kind": "protein stability index", "number": 0.295}

---

# Test system: Saccharomyces cerevisiae
# experiment_summary: protein stability index of tFT-peptide fusion (C-terminal peptide) (PSI (0-1 scale)); higher = more stable (slower turnover)
# test_settings: genetic background: wild type; temperature: 30 C
Assign classes using reported protein stability index values and the ranges Low (below 0.6), Medium (0.6 to below 0.7), High (0.7 or more), please.

{"residues": "VRPQHIITSGSC", "assigned_label": "High"}
{"residues": "GCTNSCGRHVKG", "assigned_label": "Medium"}
{"residues": "TNILMHGHKRSC", "assigned_label": "Medium"}
{"residues": "FCSLLLFRFVVL", "assigned_label": "Low"}
{"residues": "SWMFKLCIQWNV", "assigned_label": "Low"}

---

Item-by-item account of protein stability index
# Test system: Saccharomyces cerevisiae
# experiment_summary: protein stability index of tFT-peptide fusion (C-terminal peptide) (PSI (0-1 scale)); higher = more stable (slower turnover)
# test_settings: genetic background: wild type; temperature: 37 C

{"residues": "VFLLCLGFLVFS", "protein stability index": 0.389}
{"residues": "VTMTPSLCFSYS", "protein stability index": 0.632}
{"residues": "LFFRLLCAFLFL", "protein stability index": 0.535}
{"residues": "IRLCAASFMVVF", "protein stability index": 0.524}
{"residues": "ALFLLWVVMHDV", "protein stability index": 0.397}
{"residues": "CGSFWVNVLCAV", "protein stability index": 0.444}
{"residues": "LRCRAATSRTVS", "protein stability index": 0.643}
{"residues": "PFVATRVSCFLT", "protein stability index": 0.439}
{"residues": "VCWVYESWKCLA", "protein stability index": 0.107}
{"residues": "GLGLIRTSRLLC", "protein stability index": 0.296}
{"residues": "ARWRVGLWRGAS", "protein stability index": 0.612}
{"residues": "MLSVVSFVSCTC", "protein stability index": 0.237}
{"residues": "LCIFFWFSSFFL", "protein stability index": 0.505}
{"residues": "PTLPASLHSIYP", "protein stability index": 0.692}
{"residues": "LPPPYSPRLFHN", "protein stability index": 0.265}
{"residues": "MWFFFICYFLSV", "protein stability index": 0.369}
{"residues": "LSPRPPAPYYSP", "protein stability index": 0.727}
{"residues": "GFLGMFFFWFAL", "protein stability index": 0.579}
{"residues": "RLRHPPRLSTLC", "protein stability index": 0.594}

---

# Test system: Saccharomyces cerevisiae
# experiment_summary: protein stability index of tFT-peptide fusion (C-terminal peptide) (PSI (0-1 scale)); higher = more stable (slower turnover)
# test_settings: genetic background: wild type; temperature: 30 C
Please use label 1 whenever protein stability index is not below 0.7, and label 0 whenever it is.

{"residues": "MVAHTVRVKCGI", "assigned_label": "label 0"}
{"residues": "RGVGWGGLEGIG", "assigned_label": "label 0"}
{"residues": "SGLGRPHLRCLD", "assigned_label": "label 0"}
{"residues": "PLSPRHVSPPLL", "assigned_label": "label 1"}
{"residues": "LLRVYNQNGERN", "assigned_label": "label 1"}
